tested on: wheat powdery mildew; assay: protectant activity in vivo against wheat powdery mildew; conditions: Triticum aestivum, 168 h, read-out: control effect against wheat powdery mildew (%), 6.25 mg/L; protectant activity
Reported values of pest or weed control at 6.25 µg/mL for individual entries
State the answer as a number, implicitly in %.

Observe how each entry below is paired with its result.
- compound: "Cc1ncnc(NCc2ccc(Oc3ccc(C(F)(F)F)cc3Cl)cc2)c1Cl [CK51, reference compound]"
  measurement.kind: "pest or weed control at 6.25 µg/mL"
  unit.descriptor: "%"
  value.reported: 0
- compound: "FC(F)(F)c1cccnc1Oc1ccc(CCNc2cc(Cl)ncn2)cc1 [CK80, reference compound]"
  measurement.kind: "pest or weed control at 6.25 µg/mL"
  unit.descriptor: "%"
  value.reported: 0
- compound: "CCc1ncnc(NCCc2ccc(Oc3ccc(C(F)(F)F)cc3)cc2)c1Cl.Cl [II-19334]"
  measurement.kind: "pest or weed control at 6.25 µg/mL"
  unit.descriptor: "%"
  value.reported: 100

Now take the following compound into account.
Measured pest or weed control at 6.25 µg/mL (wheat powdery mildew), entry CCc1ncnc(NCCc2ccc(Oc3ccc(C(F)(F)F)cn3)cc2)c1Cl [Compound I-6765] : 100
